B1: CPEB3 Ribozyme (parent)
chain: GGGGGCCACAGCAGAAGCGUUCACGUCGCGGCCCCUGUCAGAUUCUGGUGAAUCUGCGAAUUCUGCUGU

- Variants of: B1
- EXPERIMENT_NOTES: self-cleavage, relative activity (ratio to wild type); higher = more cleavage; co-transcriptional
ENDPOINT_LABEL: self-cleavage
Enter a number only.

Entry C39G U69G has what self-cleavage?
1

Please give the result for A10U G31A too.
0.976

Another variant to check: U44A U64C
0.76

Then this variant: G2U G3U
0.0485

Now consider C33U U67C and answer again.
0.971

# iterate: U21G A52C
0.459

Also G48C G56U ?
0.962

Next record, please: C32G C34A
0.303

Now the variant G11A A13C
0.182

What about this variant? U46A U53G
0.931

Can you check G25A U44C next?
0.0881

Please answer likewise for G25U C32A
0.162

Let us now turn to U49C U62A
0.98

Could you do the same for U21G U36C , please?
0.134

And what about the variant G5A U53C ?
0.584

// same read-out, input: A15U G65A
0.753

Then this variant: G30C G41U
0.336

Also U46G U69A ?
1.01

How about this variant: C7G A52G
0.38

Try this variant too: U21G U26C
0.308

Same thing, different variant: C7G U67G
0.75

What do you have for G1A U61G ?
0.15
